Field: IC50, pseudovirus neutralization. Provide a value for each of the binders that follow.
test-target: HIV-1 CMU02 envelope glycoprotein (Env) on pseudovirus (HIV-1)
test-name: cell-based or functional assay

PGT-136 monoclonal antibody (antibody, V domains shown) VH: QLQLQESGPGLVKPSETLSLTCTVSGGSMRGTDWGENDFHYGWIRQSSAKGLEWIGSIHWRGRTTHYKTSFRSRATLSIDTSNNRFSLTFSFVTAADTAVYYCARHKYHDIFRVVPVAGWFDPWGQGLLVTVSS VL: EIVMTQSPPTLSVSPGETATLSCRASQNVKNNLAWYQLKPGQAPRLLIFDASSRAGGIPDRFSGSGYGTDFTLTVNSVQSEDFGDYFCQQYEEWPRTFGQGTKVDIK
> 10 µg/mL
PGT-123 monoclonal antibody (antibody, V domains shown) VH: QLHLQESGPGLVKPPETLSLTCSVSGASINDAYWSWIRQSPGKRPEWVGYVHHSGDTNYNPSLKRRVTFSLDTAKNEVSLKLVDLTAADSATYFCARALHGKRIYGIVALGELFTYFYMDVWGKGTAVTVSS VL: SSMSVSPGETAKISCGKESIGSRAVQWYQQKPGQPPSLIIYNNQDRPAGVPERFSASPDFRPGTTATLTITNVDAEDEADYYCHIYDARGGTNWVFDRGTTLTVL
> 10 µg/mL

We next turn to a different binder, shown below.
Note IC50, pseudovirus neutralization for the binder shown: PGT-135 monoclonal antibody (antibody, V domains shown) VH: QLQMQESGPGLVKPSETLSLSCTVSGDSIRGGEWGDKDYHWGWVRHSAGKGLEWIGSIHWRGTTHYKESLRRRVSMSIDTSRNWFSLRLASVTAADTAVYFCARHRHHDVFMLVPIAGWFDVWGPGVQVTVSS VL: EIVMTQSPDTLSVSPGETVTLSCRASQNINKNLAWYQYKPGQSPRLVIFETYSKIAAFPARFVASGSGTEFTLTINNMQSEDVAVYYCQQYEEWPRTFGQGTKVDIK
> 10 µg/mL
